Could you please report measured IC50 for the items listed next?
- TARGET_OR_TEST_SYSTEM: human TRPV1 receptor (hTRPV1) (Homo sapiens (Human))
- PROTOCOL_TEXT: Capsaicin activation assay (FLIPR intracellular Ca2+)
- Format: cell-based
- MEASUREMENT_SETUP: Table 1; inhibition of capsaicin-induced intracellular Ca2+ increase, HEK293 cells expressing human TRPV1; read-out: hTRPV1 cap IC50
One number for each entry, in nM.

Sample records with IC50:
O=C(Nc1cccc2c1C[C@H](O)C2)N[C@H]1CC[C@@H](c2ccccc2F)C1    93
CN1C(=O)CCc2c(NC(=O)N[C@@H]3CC[C@H](c4ccccc4)C3)cccc21    14
O=C(Nc1cccc2[nH]ncc12)N[C@H]1CC[C@@H](c2ccccc2F)C1    11

Kindly give each listed record's IC50.
1. Cc1cc2c(NC(=O)N[C@H]3CC[C@@H](c4cccc(F)c4)C3)c(F)ccc2cn1
2. O=C(Nc1cccc2c1CCC2)N[C@@H]1CC[C@H](c2ccccc2)C1
3. CN1C(=O)CCc2c(NC(=O)N[C@H]3CC[C@@H](c4ccccc4F)C3)cccc21
4. Cn1c(=O)ccc2c(NC(=O)N[C@H]3CC[C@@H](c4cccc(F)c4)C3)cccc21

[8.9, 362, 25, 11]

* * *

Could you please report measured IC50 for the items listed next?
- TARGET_OR_TEST_SYSTEM: human TRPV1 receptor (hTRPV1) (Homo sapiens (Human), UniProt Q8NER1)
- Sequence (Q8NER1 whole entry): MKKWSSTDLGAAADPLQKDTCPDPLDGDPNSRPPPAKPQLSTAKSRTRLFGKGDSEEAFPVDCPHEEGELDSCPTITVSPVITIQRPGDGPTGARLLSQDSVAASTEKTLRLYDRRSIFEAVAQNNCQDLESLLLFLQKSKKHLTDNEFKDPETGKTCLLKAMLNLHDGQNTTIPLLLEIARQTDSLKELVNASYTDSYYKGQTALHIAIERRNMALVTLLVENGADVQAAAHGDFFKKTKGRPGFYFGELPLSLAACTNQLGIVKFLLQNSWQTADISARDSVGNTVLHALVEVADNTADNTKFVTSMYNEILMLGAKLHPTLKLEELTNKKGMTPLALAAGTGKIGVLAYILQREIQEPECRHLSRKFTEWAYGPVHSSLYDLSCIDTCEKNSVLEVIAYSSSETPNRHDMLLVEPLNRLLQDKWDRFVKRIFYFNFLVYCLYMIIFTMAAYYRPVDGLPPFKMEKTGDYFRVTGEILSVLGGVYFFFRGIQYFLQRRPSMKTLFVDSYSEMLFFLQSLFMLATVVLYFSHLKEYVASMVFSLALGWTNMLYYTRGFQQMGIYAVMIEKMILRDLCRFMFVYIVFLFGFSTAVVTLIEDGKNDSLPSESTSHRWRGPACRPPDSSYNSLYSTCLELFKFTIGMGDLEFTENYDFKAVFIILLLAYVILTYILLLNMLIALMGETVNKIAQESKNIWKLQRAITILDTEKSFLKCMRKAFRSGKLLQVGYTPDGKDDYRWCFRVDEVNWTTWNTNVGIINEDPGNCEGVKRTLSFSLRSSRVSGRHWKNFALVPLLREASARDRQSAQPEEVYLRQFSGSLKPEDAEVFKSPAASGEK
- PROTOCOL_TEXT: Capsaicin activation assay (FLIPR intracellular Ca2+)
- Format: cell-based
- MEASUREMENT_SETUP: Table 1; inhibition of capsaicin-induced intracellular Ca2+ increase, HEK293 cells expressing human TRPV1; read-out: hTRPV1 cap IC50

Sample records with IC50:
COCCN(C)C1Cc2ccc(NC(=O)N[C@@H]3CC[C@H](c4ccccc4)C3)cc2NC1=O (some centres unmarked) [Example 144]    > 37500 nM
O=C(Nc1cccc2c(Cl)nccc12)N[C@@H]1CC[C@H](c2ccccc2)C1 [Example 136]    > 37500 nM
Cc1cc2c(NC(=O)N[C@@H]3CC[C@H](c4ccccc4)C3)c(F)ccc2cn1 [Example 6]    4 nM
O=C(Nc1cccc2[nH]ncc12)N[C@@H]1CCC[C@@H](c2ccc(C(F)(F)F)cc2)C1 [Example 31]    1840 nM
Cn1c(=O)ccc2c(NC(=O)N[C@@H]3CC[C@H](c4ccccc4)C3)cccc21 [Example 51]    13 nM

Kindly give each listed record's IC50.
1. Cc1cc2c(NC(=O)N[C@H]3CC[C@@H](c4ccccc4F)C3)c(F)ccc2cn1 [Example 83]
2. O=C(Nc1cccc2[nH]ncc12)N[C@H]1CCC[C@H](c2ccccc2)C1 [Example 35]

5.3 nM
292 nM

* * *

- TARGET_OR_TEST_SYSTEM: UniProt Q8NER1
- PROTOCOL_TEXT: Acid activation assay (pH 5.0, FLIPR intracellular Ca2+)
- Assay type: cell-based
- MEASUREMENT_SETUP: Table 1; 37.5 μM antagonist, percentage of the maximal pH 5.0-induced response remaining; read-out: hTRPV1 H+ (max % remain)
- Experimental: Dulbecco's modified Eagle's medium (DMEM) with 4.5 mg/mL D-glucose, fetal bovine serum, L-glutamine, and 2-morpholinoethanesulfonic acid (MES) were purchased from Sigma-Aldrich Co. (St. Louis, Mo.). […] The functional activity of compounds at the TRPV1 receptor was determined by measurement of intracellular Ca^2+ levels ([Ca^2+]i) using the Fluorescence Imaging Plate Reader (FLIPR)^TETRA®. […]
MEASURED_PROPERTY: remaining activity at 37.5 µM

Sample records with remaining activity at 37.5 µM:
O=C(Nc1cccc2[nH]ncc12)N[C@H]1CC[C@H](c2ccc(C(F)(F)F)cc2)C1    1%
O=C1CCc2ccc(NC(=O)N[C@@H]3CC[C@@H](c4ccccc4)C3)cc2N1    81%
C[C@H]1Oc2c(NC(=O)N[C@H]3CC[C@@H](c4ccccc4)C3)cccc2NC1=O    1%
Cc1cnc([C@@H]2CC[C@H](NC(=O)Nc3cccc4[nH]ncc34)C2)o1 (stereo in doubt)    23%
O=C(Nc1cccc2c1C[C@H](O)CC2)N[C@@H]1CC[C@H](c2ccccc2)C1 [Compound G, reference compound]    2%

Kindly give each listed record's remaining activity at 37.5 µM.
1. CCc1cc2c(NC(=O)N[C@@H]3CC[C@H](c4ccccc4)C3)c(F)ccc2cn1
2. CN1C(=O)CCc2c(NC(=O)N[C@H]3CC[C@@H](c4cccc(F)c4)C3)cccc21
3. O=C(Nc1cccc2[nH]ncc12)N[C@@H]1C=C[C@H](c2ccccc2)C1

["90%", "32%", "49%"]

Kindly give each listed record's remaining activity at 37.5 µM.
1. Cn1ncc2c(NC(=O)N[C@@H]3CC[C@H](c4ccccc4)C3)cccc21
2. O=C(Nc1cccc2[nH]ncc12)N[C@@H]1CC[C@@H](c2cccc(F)c2)C1
3. O=C(Nc1cccc2[nH]ncc12)N[C@H]1CCC[C@H](c2ccccc2)C1
4. Cn1c(=O)ccc2c(NC(=O)N[C@H]3CC[C@H](c4ccccc4)C3)cccc21
5. O=C(Nc1cccc2c1C[C@H](O)C2)N[C@@H]1CC[C@@H](c2cccc(F)c2)C1
6. Cc1cc2c(NC(=O)N[C@@H]3CC[C@H](c4ccccc4F)C3)c(F)ccc2cn1
7. O=C(Nc1cccc2[nH]ncc12)NC1CCCC(c2ccc(C(F)(F)F)cc2)C1 (stereo not shown)

1. 37%
2. 41%
3. 11%
4. 50%
5. 54%
6. 22%
7. 26%

State measured remaining activity at 37.5 µM of the compound Cc1cc2c(NC(=O)N[C@@H]3CC[C@@H](c4cccc(F)c4)C3)c(F)ccc2cn1 with UniProt Q8NER1. 13%

* * *

- TARGET_OR_TEST_SYSTEM: human TRPV1 receptor (hTRPV1) (Homo sapiens (Human), UniProt Q8NER1)
- PROTOCOL_TEXT: Capsaicin activation assay (FLIPR intracellular Ca2+)
- Type: cell-based
- MEASUREMENT_SETUP: Table 1; inhibition of capsaicin-induced intracellular Ca2+ increase, HEK293 cells expressing human TRPV1; read-out: hTRPV1 cap IC50
Cut-off 1000 nM on IC50: below means t, at or above means f.

is_below(IC50, 1000 nM) for CN1C(=O)CCc2ccc(NC(=O)N[C@H]3CC[C@@H](c4ccccc4F)C3)cc21 [Example 110] ? f

is_below(IC50, 1000 nM) for Cn1ncc2c(NC(=O)N[C@@H]3CC[C@@H](c4ccccc4F)C3)cccc21 [Example 103] ? t

* * *

- TARGET_OR_TEST_SYSTEM: UniProt:Q8NER1
- PROTOCOL_TEXT: Acid activation assay (pH 5.0, FLIPR intracellular Ca2+)
- Type: cell-based
- MEASUREMENT_SETUP: Table 1; 37.5 μM antagonist, percentage of the maximal pH 5.0-induced response remaining; read-out: hTRPV1 H+ (max % remain)
Cut-off 50% on remaining activity at 37.5 µM: below means Y, at or above means N.

Known results for molecules:
O=C(Nc1cccc2c(Cl)nccc12)N[C@@H]1CC[C@H](c2ccccc2)C1    Y
O=C(Nc1cccc2c1C[C@H](O)CC2)N[C@H]1CC[C@H](c2ccccc2)C1 [Compound A, reference compound]    Y
CN1C(=O)CCc2ccc(NC(=O)N[C@H]3CC[C@@H](c4ccccc4)C3)cc21    N
O=C(Nc1cccc2[nH]ncc12)N[C@@H]1CC[C@@H](c2nc(C(F)(F)F)cs2)C1 (relative stereo)    Y
O=C(Nc1cccc2c1C[C@H](O)C2)N[C@@H]1CC[C@H](c2ccccc2)C1    N
O=C(Nc1cccc2[nH]ncc12)N[C@@H]1CCC(c2nc(C(F)(F)F)cs2)C1 (stereo partly shown)    Y
O=C(Nc1ccc2c(c1)NC(=O)N(CCO)C2)N[C@H]1CC[C@@H](c2ccccc2F)C1    Y
CN1C(=O)CCc2c(NC(=O)N[C@@H]3CC[C@H](c4ccccc4)C3)cccc21    Y
O=C(Nc1cccc2[nH]ncc12)N[C@H]1CC[C@@H](c2cccc(F)c2)C1    Y
O=C(Nc1cccc2[nH]ncc12)N[C@@H]1CC[C@@H](c2ccccc2F)C1    Y

is_below(remaining activity at 37.5 µM, 50%) for O=C(Nc1cccc2[nH]ncc12)N[C@H]1CC[C@@H](c2ccc(C(F)(F)F)cc2)C1 ? N

is_below(remaining activity at 37.5 µM, 50%) for O=C(Nc1cccc2[nH]ncc12)N[C@@H]1CC[C@H](c2ccccc2)C1 ? Y

is_below(remaining activity at 37.5 µM, 50%) for O=C(Nc1cccc2c1C[C@H](O)C2)N[C@H]1C[C@H](c2ccccc2)C1 ? N

is_below(remaining activity at 37.5 µM, 50%) for O=C(Nc1ccc2c(c1)NC(=O)N(CCO)C2)N[C@H]1CC[C@@H](c2cccc(F)c2)C1 ? Y

is_below(remaining activity at 37.5 µM, 50%) for O=C(Nc1cccc2[nH]ncc12)N[C@@H]1CCC[C@H](c2ccccc2)C1 ? Y

is_below(remaining activity at 37.5 µM, 50%) for Cn1ncc2c(NC(=O)N[C@H]3CC[C@@H](c4cccc(F)c4)C3)cccc21 ? Y

is_below(remaining activity at 37.5 µM, 50%) for CN1C(=O)CCc2ccc(NC(=O)N[C@@H]3CC[C@@H](c4cccc(F)c4)C3)cc21 ? N

is_below(remaining activity at 37.5 µM, 50%) for C[C@@]1(c2ccccc2)CC[C@H](NC(=O)Nc2cccc3[nH]ncc23)C1 ? Y
